Measured MIC, listed per entry.
system: P. aeruginosa 101243; assay type: cell-based, Pseudomonas aeruginosa; conditions: 101243
Positions of bridges follow the written chain, without caps; N, C: chain ends. Non-standard residues stand in square brackets, D forms with d. Residues, ends and D or L forms follow the SMILES beside them. *: point of attachment. Acetyl(1-adamantyl) = O=C(CC12CC3CC(CC(C3)C1)C2)*; Lauroyl = CCCCCCCCCCCC(=O)*; Dab = NCC[C@H](N)C(=O)O; Butyryl = CCCC(=O)*
observationType: MIC

• CCCC(=O)NCC[C@H](NC(=O)CCC)C(=O)N[C@H](C(=O)N[C@@H](CCN)C(=O)N[C@H]1CCNC(=O)[C@H]([C@@H](C)O)NC(=O)[C@H](CCN)NC(=O)[C@H](CCN)NC(=O)[C@H](CC(C)C)NC(=O)[C@@H](Cc2ccccc2)NC(=O)[C@H](CCN)NC1=O)[C@@H](C)O [Compound 1, Dibutyric Acid (Di-C4) Polymyxin] (Butyryl-[Dab](Butyryl)T[Dab][Dab][Dab][dF]L[Dab][Dab]T; lactam 4-C) = >128 mg/L
• CC(C)C[C@@H]1NC(=O)[C@@H](Cc2ccccc2)NC(=O)[C@H](CCN)NC(=O)[C@@H](NC(=O)[C@H](CCN)NC(=O)[C@@H](NC(=O)[C@H](CCNC(=O)CC23CC4CC(CC(C4)C2)C3)NC(=O)CC23CC4CC(CC(C4)C2)C3)[C@@H](C)O)CCNC(=O)[C@H]([C@@H](C)O)NC(=O)[C@H](CCN)NC(=O)[C@H](CCN)NC1=O [Compound 4] ({Acetyl(1-adamantyl)}-[Dab](Acetyl(1-adamantyl))T[Dab][Dab][Dab][dF]L[Dab][Dab]T; lactam 4-C) = 64 mg/L
• CCCCCCCCCCCC(=O)NCC[C@H](NC(=O)CCCCCCCCCCC)C(=O)N[C@H](C(=O)N[C@@H](CCN)C(=O)N[C@H]1CCNC(=O)[C@H]([C@@H](C)O)NC(=O)[C@H](CCN)NC(=O)[C@H](CCN)NC(=O)[C@H](CC(C)C)NC(=O)[C@@H](Cc2ccccc2)NC(=O)[C@H](CCN)NC1=O)[C@@H](C)O [Compound 3, Didodecanoic Acid (Di-C12) Polymyxin] (Lauroyl-[Dab](Lauroyl)T[Dab][Dab][Dab][dF]L[Dab][Dab]T; lactam 4-C) = 16 mg/L

====

test system: P. aeruginosa PAO1; set-up: unit not given beside the values; conditions: in combination with Streptomycin
Positions of bridges follow the written chain, without caps; N, C: chain ends. Non-standard residues stand in square brackets, D forms with d. Residues, ends and D or L forms follow the SMILES beside them. *: point of attachment. Benzoyl(4-Ph) = O=C(c1ccc(-c2ccccc2)cc1)*; Dab = NCC[C@H](N)C(=O)O; Butyryl = CCCC(=O)*
observationType: MIC of adjuvant in combo

- CCCC(=O)NCC[C@H](NC(=O)CCC)C(=O)N[C@H](C(=O)N[C@@H](CCN)C(=O)N[C@H]1CCNC(=O)[C@H]([C@@H](C)O)NC(=O)[C@H](CCN)NC(=O)[C@H](CCN)NC(=O)[C@H](CC(C)C)NC(=O)[C@@H](Cc2ccccc2)NC(=O)[C@H](CCN)NC1=O)[C@@H](C)O [Compound 1, Dibutyric Acid (Di-C4) Polymyxin] (Butyryl-[Dab](Butyryl)T[Dab][Dab][Dab][dF]L[Dab][Dab]T; lactam 4-C): (32)
- CC(C)C[C@@H]1NC(=O)[C@@H](Cc2ccccc2)NC(=O)[C@H](CCN)NC(=O)[C@@H](NC(=O)[C@H](CCN)NC(=O)[C@@H](NC(=O)[C@H](CCNC(=O)c2ccc(-c3ccccc3)cc2)NC(=O)c2ccc(-c3ccccc3)cc2)[C@@H](C)O)CCNC(=O)[C@H]([C@@H](C)O)NC(=O)[C@H](CCN)NC(=O)[C@H](CCN)NC1=O [Compound 5] ({Benzoyl(4-Ph)}-[Dab](Benzoyl(4-Ph))T[Dab][Dab][Dab][dF]L[Dab][Dab]T; lactam 4-C): (8)

====

tested on: P. aeruginosa PAO1; set-up: unit not given beside the values; details: antibiotic in combination with 1
observationType: MICDrug in combo

• NC[C@H]1O[C@H](O[C@H]2[C@H](O)[C@@H](O[C@H]3O[C@H](CO)[C@@H](O)[C@H](N)[C@H]3O)[C@H](N)C[C@@H]2N)[C@H](N)C[C@@H]1O [Tobramycin, reference compound] = (1)
• [H]/N=C(/N)N[C@H]1[C@H](O)[C@@H](O)[C@H](O[C@@H]2O[C@@H](C)[C@](O)(C=O)[C@H]2O[C@@H]2O[C@@H](CO)[C@H](O)[C@@H](O)[C@@H]2NC)[C@@H](N/C(N)=N\[H])[C@@H]1O [Streptomycin, reference compound] = (8)
• COc1cc(Cc2cnc(N)nc2N)cc(OC)c1OC [Trimethoprim, reference compound] = (16)
• CC(=O)NC[C@H]1CN(c2ccc(N3CCOCC3)c(F)c2)C(=O)O1 [Linezolid, reference compound] = (64)
• C[C@@H](O)[C@H]1C(=O)N2C(C(=O)O)=C(S[C@@H]3CN[C@H](CNS(N)(=O)=O)C3)[C@H](C)[C@H]12 [Doripenem, reference compound] = (0.5)
• CO[C@@H]1[C@@H](OC(N)=O)[C@@H](O)[C@H](Oc2ccc3c(O)c(NC(=O)c4ccc(O)c(CC=C(C)C)c4)c(=O)oc3c2C)OC1(C)C [Novobiocin, reference compound] = (16)
• C[C@H]1[C@H](NC(=O)/C(=N\OC(C)(C)C(=O)O)c2csc(N)n2)C(=O)N1S(=O)(=O)O [Aztreonam, reference compound] = (0.5)
• CN(C)c1ccc(O)c2c1C[C@H]1C[C@H]3[C@H](N(C)C)C(O)=C(C(N)=O)C(=O)[C@@]3(O)C(O)=C1C2=O [Minocycline, reference compound] = (1)

====

system: P. aeruginosa PAO200; details: P. aeruginosa PAO200, efflux-deficient strain that lacks the MexAB-OprM pump
Positions of bridges follow the written chain, without caps; N, C: chain ends. Non-standard residues stand in square brackets, D forms with d. Residues, ends and D or L forms follow the SMILES beside them. *: point of attachment. Acetyl(1-adamantyl) = O=C(CC12CC3CC(CC(C3)C1)C2)*; Octanoyl = CCCCCCCC(=O)*; Dab = NCC[C@H](N)C(=O)O; Butyryl = CCCC(=O)*
Measured MIC, listed per entry.
observationType: MIC (µg/mL)

* CCCCCCCC(=O)NCC[C@H](NC(=O)CCCCCCC)C(=O)N[C@H](C(=O)N[C@@H](CCN)C(=O)N[C@H]1CCNC(=O)[C@H]([C@@H](C)O)NC(=O)[C@H](CCN)NC(=O)[C@H](CCN)NC(=O)[C@H](CC(C)C)NC(=O)[C@@H](Cc2ccccc2)NC(=O)[C@H](CCN)NC1=O)[C@@H](C)O [Compound 2, Dioctanoic Acid (Di-C8) Polymyxin] (Octanoyl-[Dab](Octanoyl)T[Dab][Dab][Dab][dF]L[Dab][Dab]T; lactam 4-C) | 2
* CC(C)C[C@@H]1NC(=O)[C@@H](Cc2ccccc2)NC(=O)[C@H](CCN)NC(=O)[C@@H](NC(=O)[C@H](CCN)NC(=O)[C@@H](NC(=O)[C@H](CCNC(=O)CC23CC4CC(CC(C4)C2)C3)NC(=O)CC23CC4CC(CC(C4)C2)C3)[C@@H](C)O)CCNC(=O)[C@H]([C@@H](C)O)NC(=O)[C@H](CCN)NC(=O)[C@H](CCN)NC1=O [Compound 4] ({Acetyl(1-adamantyl)}-[Dab](Acetyl(1-adamantyl))T[Dab][Dab][Dab][dF]L[Dab][Dab]T; lactam 4-C) | 4
* CCCC(=O)NCC[C@H](NC(=O)CCC)C(=O)N[C@H](C(=O)N[C@@H](CCN)C(=O)N[C@H]1CCNC(=O)[C@H]([C@@H](C)O)NC(=O)[C@H](CCN)NC(=O)[C@H](CCN)NC(=O)[C@H](CC(C)C)NC(=O)[C@@H](Cc2ccccc2)NC(=O)[C@H](CCN)NC1=O)[C@@H](C)O [Compound 1, Dibutyric Acid (Di-C4) Polymyxin] (Butyryl-[Dab](Butyryl)T[Dab][Dab][Dab][dF]L[Dab][Dab]T; lactam 4-C) | 4

====

system: P. aeruginosa PAO1; parameters: unit not given beside the values; conditions: in combination with Doxycycline
Positions of bridges follow the written chain, without caps; N, C: chain ends. Non-standard residues stand in square brackets, D forms with d. Residues, ends and D or L forms follow the SMILES beside them. *: point of attachment. Acetyl(1-adamantyl) = O=C(CC12CC3CC(CC(C3)C1)C2)*; Octanoyl = CCCCCCCC(=O)*; Dab = NCC[C@H](N)C(=O)O
observationType: MIC of adjuvant in combo

- CC(C)C[C@@H]1NC(=O)[C@@H](Cc2ccccc2)NC(=O)[C@H](CCN)NC(=O)[C@@H](NC(=O)[C@H](CCN)NC(=O)[C@@H](NC(=O)[C@H](CCNC(=O)CC23CC4CC(CC(C4)C2)C3)NC(=O)CC23CC4CC(CC(C4)C2)C3)[C@@H](C)O)CCNC(=O)[C@H]([C@@H](C)O)NC(=O)[C@H](CCN)NC(=O)[C@H](CCN)NC1=O [Compound 4] ({Acetyl(1-adamantyl)}-[Dab](Acetyl(1-adamantyl))T[Dab][Dab][Dab][dF]L[Dab][Dab]T; lactam 4-C): (4)
- CC(C)C[C@@H]1NC(=O)[C@@H](Cc2ccccc2)NC(=O)[C@H](CCN)NC(=O)[C@@H](NC(=O)[C@H](CCN)NC(=O)[C@@H](N)[C@@H](C)O)CCNC(=O)[C@H]([C@@H](C)O)NC(=O)[C@H](CCN)NC(=O)[C@H](CCN)NC1=O [PMBN, polymyxin B nonapeptide, reference compound] (H-T[Dab][Dab][Dab][dF]L[Dab][Dab]T; lactam 3-C (inferred)): (4)
- CCCCCCCC(=O)NCC[C@H](NC(=O)CCCCCCC)C(=O)N[C@H](C(=O)N[C@@H](CCN)C(=O)N[C@H]1CCNC(=O)[C@H]([C@@H](C)O)NC(=O)[C@H](CCN)NC(=O)[C@H](CCN)NC(=O)[C@H](CC(C)C)NC(=O)[C@@H](Cc2ccccc2)NC(=O)[C@H](CCN)NC1=O)[C@@H](C)O [Compound 2, Dioctanoic Acid (Di-C8) Polymyxin] (Octanoyl-[Dab](Octanoyl)T[Dab][Dab][Dab][dF]L[Dab][Dab]T; lactam 4-C): (4)
